Every entry's value here was drawn from paper PMC6009875.

Overview of reported IC50 across a group of compounds:
target: Xanthine oxidase from bovine milk (Bos taurus, UniProt P80457); construct: Xanthine oxidase from bovine milk (0.2 U/mg); experiment: XO activity assay (IC50, uric acid formation at 295 nm); settings: total absence of methanol; 50 μM xanthine, pH 7.8, 20 °C
Sequence (P80457 whole entry): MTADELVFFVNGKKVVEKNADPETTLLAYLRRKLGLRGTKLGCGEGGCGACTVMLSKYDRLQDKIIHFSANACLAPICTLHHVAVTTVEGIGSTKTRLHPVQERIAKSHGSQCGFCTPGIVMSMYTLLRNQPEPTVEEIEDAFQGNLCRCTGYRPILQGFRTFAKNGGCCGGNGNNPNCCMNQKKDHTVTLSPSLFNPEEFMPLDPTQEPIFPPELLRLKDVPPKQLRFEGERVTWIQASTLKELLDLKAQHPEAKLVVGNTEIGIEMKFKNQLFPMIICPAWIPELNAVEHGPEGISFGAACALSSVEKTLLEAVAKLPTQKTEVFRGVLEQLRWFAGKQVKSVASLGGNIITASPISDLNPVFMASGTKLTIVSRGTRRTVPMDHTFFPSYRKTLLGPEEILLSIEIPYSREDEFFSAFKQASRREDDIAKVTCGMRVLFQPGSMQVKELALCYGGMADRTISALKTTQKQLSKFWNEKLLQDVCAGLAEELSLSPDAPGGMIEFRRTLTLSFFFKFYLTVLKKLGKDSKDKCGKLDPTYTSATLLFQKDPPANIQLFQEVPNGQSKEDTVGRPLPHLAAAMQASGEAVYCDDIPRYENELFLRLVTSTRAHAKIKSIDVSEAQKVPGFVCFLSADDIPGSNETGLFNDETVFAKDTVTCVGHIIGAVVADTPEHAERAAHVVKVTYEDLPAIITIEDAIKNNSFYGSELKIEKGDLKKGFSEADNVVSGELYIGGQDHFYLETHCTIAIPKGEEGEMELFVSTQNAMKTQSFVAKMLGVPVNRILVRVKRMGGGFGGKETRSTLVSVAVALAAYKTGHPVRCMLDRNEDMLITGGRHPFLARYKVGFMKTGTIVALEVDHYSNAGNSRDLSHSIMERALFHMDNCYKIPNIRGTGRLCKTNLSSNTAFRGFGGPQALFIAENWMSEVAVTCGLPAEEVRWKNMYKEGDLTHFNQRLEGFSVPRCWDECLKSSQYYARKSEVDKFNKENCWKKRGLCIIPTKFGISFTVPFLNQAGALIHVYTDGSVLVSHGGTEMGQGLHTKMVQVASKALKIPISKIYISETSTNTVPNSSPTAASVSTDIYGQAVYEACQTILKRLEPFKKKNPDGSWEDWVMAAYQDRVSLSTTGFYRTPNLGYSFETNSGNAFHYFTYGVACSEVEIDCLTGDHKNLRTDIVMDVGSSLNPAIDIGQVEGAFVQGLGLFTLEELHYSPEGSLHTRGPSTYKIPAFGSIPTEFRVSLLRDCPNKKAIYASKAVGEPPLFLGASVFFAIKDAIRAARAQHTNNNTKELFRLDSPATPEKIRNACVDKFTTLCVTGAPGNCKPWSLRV
READOUT_LABEL: IC50

COMPOUND: C/C=C1/[C@H]2OC=C(C(=O)OC)[C@H]1CC(=O)OC[C@@H](c1ccc(O)c(O)c1)OC[C@H]1O[C@@H](O2)[C@H](O)[C@@H](O)[C@@H]1O [Compound 1, fraxamoside]
MEASURED_TARGET: Xanthine oxidase from bovine milk (Bos taurus, UniProt P80457)
RESULT: 16.1 µM

COMPOUND: C/C=C1/[C@H](O[C@@H]2O[C@H](CO)[C@@H](O)[C@H](O)[C@H]2O)OC=C(C(=O)OC)[C@H]1CC(=O)O [Compound 3, oleoside 11-methyl ester]
MEASURED_TARGET: Xanthine oxidase from bovine milk (Bos taurus, UniProt P80457)
RESULT: 259 µM

COMPOUND: OCCc1ccc(O)c(O)c1 [Compound 4, hydroxytyrosol]
MEASURED_TARGET: Xanthine oxidase from bovine milk (Bos taurus, UniProt P80457)
RESULT: 1130 µM

COMPOUND: C/C=C1/[C@H](O[C@@H]2O[C@H](CO)[C@@H](O)[C@H](O)[C@H]2O)OC=C(C(=O)OC)[C@H]1CC(=O)OCCc1ccc(O)c(O)c1 [Compound 2, oleuropein]
MEASURED_TARGET: Xanthine oxidase from bovine milk (Bos taurus, UniProt P80457)
RESULT: 335 µM
